// values below are reported RNAp (RNA polymerase inhibition) IC50
SYSTEM NAME: RNA polymerase
EXPERIMENTAL DETAILS: Enzyme inhibition: RNA polymerase inhibition
Assay type: biochemical
Please give a number only; it is taken to be in µg/mL.

COc1c(C)cc2c(c1O)[C@H]1N[C@@H](C2)[C@H](O)N2[C@H]1[C@@H]1SC[C@]3(NCCc4c3[nH]c3ccccc43)C(=O)OC[C@H]2c2c3c(c(C)c(OC(C)=O)c21)OCO3 ... 0.5

Continue with the next compound.
Query :: Return the recorded RNAp (RNA polymerase inhibition) IC50 value; entry: COc1cc2c(cc1OC(C)=O)CCN[C@]21CS[C@@H]2c3c(OC(C)=O)c(C)c4c(c3[C@H](COC1=O)N1[C@@H]2[C@H]2c3c(O)c(OC)c(C)c(Br)c3C[C@@H]([C@@H]1O)N2C)OCO4
Result :: 0.42

FYI, the data here is from patent US20090247533A1.
